- System: T1, Ac-DAEFRHDSGYEVHHQKGGGGC-NH2, immobilized peptide fragment corresponding to the 1-16 region of the amyloid-β … (N-terminal acetyl (Ac); C-terminal amide (NH2); C-terminal cysteine bound to the CM5 chip through a thiol bond)
- T1 construct: Synthetic 21-mer; Aβ 1-16 plus GGGG linker and Cys for immobilisation; also called ligand; target ligand
- T1 peptide: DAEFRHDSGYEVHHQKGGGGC
- Protocol Notes: SPR, BIACORE 3000, ligand immobilised on CM5 chip by thiol bond, peptide as analyte 0-25 µM, response at equilibrium; Example 1, BIACORE 3000, response at equilibrium
pKd: −log10 of the molar value.

{"columns": ["Binder", "pKd"],
 "data": [
  ["Ac-HAEE-NH2 (also called ID; NO; 19) [Ac-HAEE-NH2]", 7.66]
]}
